Where do the numbers come from? From patent US11066396B2.

pIC50: −log10 of the molar value.
Dear all, this message contains pIC50 results, target or system HDAC1 (Homo sapiens (Human), UniProt Q13547).

{"columns": ["Molecule", "pIC50"],
 "data": [
  ["O=C(N1CCOCC1)N(Cc1ccc(-c2noc(C(F)(F)F)n2)cn1)c1cccc(C(F)(F)F)c1 [Example 49]", 6.00],
  ["O=C1COC[C@@H](c2ccccc2)N1c1ccc(-c2noc(C(F)(F)F)n2)cc1F [Example 161]", 6.41],
  ["O=C1CCCC(c2ccccc2)N1c1ccc(-c2noc(C(F)(F)F)n2)cc1 (centres unmarked) [Example 40]", 6.39],
  ["COc1ncccc1OCc1ccc(-c2noc(C(F)(F)F)n2)c(F)c1 [Example 246]", 5.62],
  ["O=c1ccc2ccc(Br)cc2n1Cc1ccc(-c2noc(C(F)(F)F)n2)cc1 [Example 321]", 6.68],
  ["O=C(C1COCCO1)N(Cc1ccc(-c2noc(C(F)(F)F)n2)cc1)c1cccc(C(F)(F)F)c1 (racemic) [Example 84]", 6.02],
  ["COc1ccc(NCc2ccc(-c3noc(C(F)(F)F)n3)cn2)cn1 [Example 363]", 6.28],
  ["O=C1CCC(c2ccccc2)N1c1ncc(-c2noc(C(F)(F)F)n2)cc1F (centres unmarked) [Example 5]", 5.64],
  ["Cc1ncc(COc2nccc(-c3noc(C(F)(F)F)n3)c2Cl)c(C)n1 [Example 292]", 5.19],
  ["Fc1cc(COc2cncc(Cl)c2)ccc1-c1noc(C(F)(F)F)n1 [Example 287]", 5.74],
  ["FC(F)(F)c1nc(-c2ccc(CNc3cccc(-n4cncn4)c3)nc2)no1 [Example 364]", 7.22],
  ["CC(=O)NC(Cc1ccc(-c2noc(C(F)(F)F)n2)cn1)c1cccc(C(F)(F)F)c1 (centres unmarked) [Example 177]", 6.28],
  ["O=C1CCC(c2ccccc2Cl)N1c1ccc(-c2noc(C(F)(F)F)n2)cc1F (centres unmarked) [Example 117]", 5.74],
  ["NC(=O)c1cccc(NCc2ccc(-c3noc(C(F)(F)F)n3)cn2)c1 [Example 449]", 6.51],
  ["O=C(CC1COCCO1)N(Cc1ccc(-c2noc(C(F)(F)F)n2)cc1)c1cccc(C(F)(F)F)c1 (racemic) [Example 95]", 5.89],
  ["O=C(C1CCOCC1)N(Cc1ccc(-c2noc(C(F)(F)F)n2)cc1)c1cccc(C(F)(F)F)c1 [Example 85]", 5.92],
  ["Cc1ccnnc1OCc1ccc(-c2noc(C(F)(F)F)n2)c(F)c1 [Example 266]", 5.18]
]}

====

pIC50: −log10 of the molar value.
# HDAC5 (Homo sapiens (Human)): pIC50 values follow
# Sequence (Q9UQL6 656-1122): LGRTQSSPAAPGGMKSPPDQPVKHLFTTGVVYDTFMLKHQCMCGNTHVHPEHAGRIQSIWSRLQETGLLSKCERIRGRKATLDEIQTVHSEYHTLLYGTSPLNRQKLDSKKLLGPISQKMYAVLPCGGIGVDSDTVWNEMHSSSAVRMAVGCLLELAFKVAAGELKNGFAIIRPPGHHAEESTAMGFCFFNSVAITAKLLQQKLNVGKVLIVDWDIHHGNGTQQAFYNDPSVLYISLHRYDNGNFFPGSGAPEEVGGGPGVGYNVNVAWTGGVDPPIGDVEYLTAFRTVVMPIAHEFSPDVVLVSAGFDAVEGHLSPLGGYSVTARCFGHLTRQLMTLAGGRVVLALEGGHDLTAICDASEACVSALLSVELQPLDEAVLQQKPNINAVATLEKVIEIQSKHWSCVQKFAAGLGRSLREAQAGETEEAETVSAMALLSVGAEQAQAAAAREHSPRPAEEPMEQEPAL

{"columns": ["Compound", "pIC50"],
 "data": [
  ["COc1cnnc(OCc2ccc(-c3noc(C(F)(F)F)n3)c(F)c2)c1 [Example 239]", 6.72],
  ["Cc1ccc(NCc2ccc(-c3noc(C(F)(F)F)n3)c(F)c2)cn1 [Example 253]", 7.19],
  ["Fc1cc(CNc2ccc3ccncc3c2)ccc1-c1noc(C(F)(F)F)n1 [Example 254]", 6.85],
  ["COCC(=O)NC(Cc1ccc(-c2noc(C(F)(F)F)n2)cn1)c1cccc(C(F)(F)F)c1 (racemic) [Example 480]", 6.21],
  ["Cc1nc(OCc2ccc(-c3noc(C(F)(F)F)n3)c(F)c2)c2cnn(C)c2n1 [Example 248]", 7.23],
  ["Fc1cc(COc2cc(C(F)F)ncn2)ccc1-c1noc(C(F)(F)F)n1 [Example 242]", 6.96],
  ["Fc1cc(COc2cccc3c2CNCC3)ccc1-c1noc(C(F)(F)F)n1 [Example 265]", 6.55],
  ["O=C1CCC(c2ccccc2)N1c1cc(F)c(-c2noc(C(F)(F)F)n2)cc1F (centres unmarked) [Example 41]", 7.72]
]}

====

// endpoint IC50 / system HDAC8 (Homo sapiens (Human))
Property name: IC50 (µM)

{"columns": ["Compound", "Tested target", "Observed value"],
 "data": [
  ["Cc1cn(C(C)C(=O)N(Cc2ccc(-c3noc(C(F)(F)F)n3)cn2)c2cccc(F)c2)nn1 (racemic)", "HDAC8 (Homo sapiens (Human))", 2.8],
  ["FC(F)(F)c1nc(-c2ccc(N3CCOC[C@@H]3c3ccccc3)nc2)no1", "HDAC8 (Homo sapiens (Human))", 1.8],
  ["CN1CCOC(CNCc2ccc(-c3noc(C(F)(F)F)n3)cn2)C1 (racemic)", "HDAC8 (Homo sapiens (Human))", 2.4],
  ["FC(F)(F)c1nc(-c2ccc(CNc3[nH]nc4ccccc34)nc2)no1", "HDAC8 (Homo sapiens (Human))", 2],
  ["O=C(Cc1[nH]nc2ccccc12)N(Cc1ccc(-c2noc(C(F)(F)F)n2)cn1)c1cccc(F)c1", "HDAC8 (Homo sapiens (Human))", 1.1],
  ["CC(C(=O)N(Cc1ccc(-c2noc(C(F)(F)F)n2)cc1)c1cccc(C(F)(F)F)c1)n1cncn1 (racemic)", "HDAC8 (Homo sapiens (Human))", 1.9],
  ["FC(F)(F)c1nc(-c2ccc(N3CCCCC3c3ccccn3)nc2)no1 (racemic)", "HDAC8 (Homo sapiens (Human))", 3.2],
  ["O=C1NCCCC1NCc1ccc(-c2noc(C(F)(F)F)n2)cn1 (racemic)", "HDAC8 (Homo sapiens (Human))", 2.8]
]}

====

Here's what we have: IC50 numbers for HDAC8 (Homo sapiens (Human)).

{"columns": ["Compound", "Tested target", "IC50"],
 "data": [
  ["NC(=O)c1cccc(NCc2ccc(-c3noc(C(F)(F)F)n3)cn2)c1", "HDAC8 (Homo sapiens (Human))", "1900 nM"],
  ["O=C(Nc1ccccc1)c1ccccc1NCc1ccc(-c2noc(C(F)(F)F)n2)cn1", "HDAC8 (Homo sapiens (Human))", "740 nM"],
  ["O=C(C1CCS(=O)(=O)CC1)N(Cc1cnc(-c2noc(C(F)(F)F)n2)cn1)c1cccc(C(F)(F)F)c1", "HDAC8 (Homo sapiens (Human))", "10000 nM"],
  ["O=C1CCC(c2ccccc2)N1c1ccc(-c2noc(C(F)(F)F)n2)cc1F (centres unmarked)", "HDAC8 (Homo sapiens (Human))", "1400 nM"],
  ["O=C(C1CCS(=O)(=O)CC1)N(Cc1ccc(-c2noc(C(F)(F)F)n2)cn1)c1cccc(C(F)(F)F)c1", "HDAC8 (Homo sapiens (Human))", "2500 nM"],
  ["Cc1nc(COc2cc(-c3noc(C(F)(F)F)n3)ccn2)no1", "HDAC8 (Homo sapiens (Human))", "620 nM"],
  ["CC(C)c1ncc(C(=O)N(Cc2ccc(-c3noc(C(F)(F)F)n3)cn2)c2cccc(F)c2)cn1", "HDAC8 (Homo sapiens (Human))", "1800 nM"],
  ["Fc1cc(COc2nc[nH]n2)ccc1-c1noc(C(F)(F)F)n1", "HDAC8 (Homo sapiens (Human))", "1400 nM"]
]}

====

Values of pIC50 reported for UniProtKB Q9BY41 appear below.
pIC50: −log10 of the molar value.

{"columns": ["Molecule", "Tested target", "pIC50"],
 "data": [
  ["Cn1ccc(NCc2ccc(-c3noc(C(F)(F)F)n3)cn2)cc1=O", "UniProtKB Q9BY41", 5.62],
  ["FC(F)(F)c1nc(-c2ccc(CNC3CCc4ncccc4C3)nc2)no1 (racemic)", "UniProtKB Q9BY41", 5.80],
  ["O=C1NCCc2ccccc2C1NCc1ccc(-c2noc(C(F)(F)F)n2)cn1 (racemic)", "UniProtKB Q9BY41", 5.55],
  ["FC(F)(F)c1nc(-c2ccc(CNc3c[nH]nn3)nc2)no1", "UniProtKB Q9BY41", 5.72]
]}

====

Tested target: HDAC1 (Homo sapiens (Human), UniProt Q13547)
Sequence (Q13547 whole entry): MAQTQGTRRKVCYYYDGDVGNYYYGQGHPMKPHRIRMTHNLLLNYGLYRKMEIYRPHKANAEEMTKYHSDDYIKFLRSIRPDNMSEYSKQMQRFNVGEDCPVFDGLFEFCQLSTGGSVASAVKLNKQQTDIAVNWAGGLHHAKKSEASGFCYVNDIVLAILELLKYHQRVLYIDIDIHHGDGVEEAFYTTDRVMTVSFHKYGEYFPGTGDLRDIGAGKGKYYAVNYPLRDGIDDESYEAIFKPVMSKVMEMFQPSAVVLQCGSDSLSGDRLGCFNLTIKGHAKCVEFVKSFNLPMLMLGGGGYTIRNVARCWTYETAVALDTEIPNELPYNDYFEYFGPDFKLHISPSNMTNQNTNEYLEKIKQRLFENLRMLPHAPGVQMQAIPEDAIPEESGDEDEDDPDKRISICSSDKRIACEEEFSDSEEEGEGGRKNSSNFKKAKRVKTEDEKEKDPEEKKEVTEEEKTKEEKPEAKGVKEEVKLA
Property name: log10(IC50) (log10 of the value in µM)

{"columns": ["Compound", "log10(IC50)"],
 "data": [
  ["COC(=O)NC(Cc1ccc(-c2noc(C(F)(F)F)n2)cn1)c1cccc(C(F)(F)F)c1 (centres unmarked)", -0.19],
  ["FC(F)(F)c1nc(-c2ccc(CNc3ccc4ccncc4c3)nc2)no1", -1.17],
  ["FC(F)(F)c1nc(-c2ccc(CNC3CCc4ncccc4C3)cc2)no1 (racemic)", -0.28],
  ["O=C1CCC(c2c(F)cccc2F)N1c1ccc(-c2noc(C(F)(F)F)n2)cc1F (racemic)", 1.04],
  ["FC(F)(F)c1nc(-c2ccnc(OCc3cnn4c3OCCC4)c2)no1", 0.83],
  ["O=C(C(Cc1ccc(-c2noc(C(F)(F)F)n2)cn1)c1cccc(C(F)(F)F)c1)N1CC[S+]([O-])CC1 (racemic)", 0.61],
  ["O=C1CCC(c2ccc(-c3noc(C(F)(F)F)n3)cc2)N1c1ccccc1F (centres unmarked) [Example 329]", 0.59],
  ["FC(F)(F)c1nc(-c2ccc(N[C@@H]3CCCC[C@H]3c3ccccc3)nc2)no1", 0.66]
]}
